# system-name: Low molecular weight phosphotyrosine protein phosphatase (Homo sapiens);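 also: Dose-response confirmation assay measuring inhibition of LMPTP enzyme activity by fluorescence intensity read-out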
# Sequence (P24666 whole entry): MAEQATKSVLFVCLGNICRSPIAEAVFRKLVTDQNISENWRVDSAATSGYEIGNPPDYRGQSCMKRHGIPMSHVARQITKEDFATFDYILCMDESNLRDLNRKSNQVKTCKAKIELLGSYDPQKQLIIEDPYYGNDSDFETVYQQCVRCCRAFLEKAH
# Format: functional
# condition-notes: read-out: IC50_Mean
Calls of active or inactive are those of the source.
Labels: active, inactive

| compound | category |
| --- | --- |
| CC(=Cc1ccccc1)C=C1SC(=S)N(CCCC(=O)Nc2ccc(C(=O)O)cc2)C1=O | inactive |
| COc1c(N2CCN(C(S)=NCc3ccccc3)C(C)C2)c(F)cc2c(=O)c(C(=O)O)cn(C3CC3)c12 (centres undefined) | active |
| CC(/C=N/NC(=O)c1ccc(Br)cc1)=C\c1ccccc1 | inactive |
| CCc1ccc(NC(=O)C[S+]([O-])CC(=O)Nc2ccc(N3CCOCC3)cc2)cc1 (centres undefined) | active |

----------
# system-name: Sentrin-specific protease 6 (Homo sapiens)
# Sequence (Q9GZR1 whole entry): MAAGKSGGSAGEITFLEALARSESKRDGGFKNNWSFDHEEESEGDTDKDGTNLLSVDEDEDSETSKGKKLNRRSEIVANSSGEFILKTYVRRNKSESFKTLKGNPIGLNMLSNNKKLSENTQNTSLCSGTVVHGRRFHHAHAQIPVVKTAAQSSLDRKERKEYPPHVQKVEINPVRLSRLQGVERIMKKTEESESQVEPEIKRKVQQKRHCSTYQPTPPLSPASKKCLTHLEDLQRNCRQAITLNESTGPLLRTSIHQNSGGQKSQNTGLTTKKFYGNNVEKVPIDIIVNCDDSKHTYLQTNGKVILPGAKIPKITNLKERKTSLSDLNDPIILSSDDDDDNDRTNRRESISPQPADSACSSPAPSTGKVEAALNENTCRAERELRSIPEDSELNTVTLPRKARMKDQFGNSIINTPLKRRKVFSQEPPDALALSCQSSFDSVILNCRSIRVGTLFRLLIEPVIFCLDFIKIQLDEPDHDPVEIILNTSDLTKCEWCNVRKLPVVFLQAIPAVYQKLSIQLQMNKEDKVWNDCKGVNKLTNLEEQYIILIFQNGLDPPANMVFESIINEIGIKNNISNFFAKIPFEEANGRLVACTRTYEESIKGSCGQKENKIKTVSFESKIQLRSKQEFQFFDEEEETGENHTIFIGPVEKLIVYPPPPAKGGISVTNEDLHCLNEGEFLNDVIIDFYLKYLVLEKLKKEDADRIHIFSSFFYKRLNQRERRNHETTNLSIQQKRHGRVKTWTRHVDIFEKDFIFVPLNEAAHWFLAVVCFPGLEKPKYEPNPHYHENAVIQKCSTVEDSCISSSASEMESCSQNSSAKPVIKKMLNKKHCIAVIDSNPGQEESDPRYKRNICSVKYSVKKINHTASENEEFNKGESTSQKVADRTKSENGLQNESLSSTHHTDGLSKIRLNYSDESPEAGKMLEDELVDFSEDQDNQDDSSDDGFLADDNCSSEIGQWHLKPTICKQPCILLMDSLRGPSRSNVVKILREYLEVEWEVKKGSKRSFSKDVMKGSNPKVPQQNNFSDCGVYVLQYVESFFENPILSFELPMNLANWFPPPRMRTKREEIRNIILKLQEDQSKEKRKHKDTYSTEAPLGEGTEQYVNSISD
# protocol-description: SAR Analysis of small molecule inhibitors of Sentrin-specific protease 6 (SENP6) using a Luminescent assay. [Related pubchem assays (depositor defined):AID2582, AID2599]
# Assay type: functional
Active and inactive are the calls of the source.
Classes used: active, inactive

| molecule-smiles | category |
| --- | --- |
| COc1ccc2nc(NC(=O)c3ccc4c(c3)OCCO4)sc2c1 | inactive |
| Cc1cc(NC(=O)COC(=O)CNC(=O)c2sc3ccccc3c2Cl)no1 | inactive |
| Cc1csc(C(=O)Nc2nc3ccc(Cl)cc3s2)c1 | inactive |
| Oc1ccccc1-c1nc(/C=C/c2ccc(F)cc2)no1 | active |

----------
Quick reference for AC50 among some compounds
# system-name: Dual specificity tyrosine-phosphorylation-regulated kinase 1A (Rattus norvegicus, UniProt Q63470)
# Type: biochemical, Homo sapiens
Active and inactive are the calls of the source.

| molecule-smiles | AC50 |
| --- | --- |
| Cc1noc(NS(=O)(=O)c2ccc(NC(=O)c3oc4ccc(F)cc4c3C)cc2)c1C | 9.87 µM (active) |
| O=C1SC(c2ccccc2)=C/C1=C\N1CCCCC1 | 2.83 µM (active) |
| O=S(=O)(Nc1c(S(=O)(=O)c2ccccc2)c2nc3ccccc3nc2n1C1CCCCC1)c1ccccc1 | 26.7 µM (active) |
| Fc1ccc(C2Nc3cccc4cccc(c34)N2)cc1 | 16.4 µM (active) |
| COc1cc(C2C(=O)c3ccccc3C2=O)ccc1O | 3.44 µM (active) |
| CCC1(CC)NC(=O)N(CC(=O)Nc2sc3c(c2C(N)=O)CCC3)C1=O | 32.9 µM (active) |
| N=C(N)/N=N/c1c(O)[nH]c2ccc(Br)cc12 | 5.14 µM (active) |

----------
# system-name: UniProtKB P05177
# Sequence (P05177 whole entry): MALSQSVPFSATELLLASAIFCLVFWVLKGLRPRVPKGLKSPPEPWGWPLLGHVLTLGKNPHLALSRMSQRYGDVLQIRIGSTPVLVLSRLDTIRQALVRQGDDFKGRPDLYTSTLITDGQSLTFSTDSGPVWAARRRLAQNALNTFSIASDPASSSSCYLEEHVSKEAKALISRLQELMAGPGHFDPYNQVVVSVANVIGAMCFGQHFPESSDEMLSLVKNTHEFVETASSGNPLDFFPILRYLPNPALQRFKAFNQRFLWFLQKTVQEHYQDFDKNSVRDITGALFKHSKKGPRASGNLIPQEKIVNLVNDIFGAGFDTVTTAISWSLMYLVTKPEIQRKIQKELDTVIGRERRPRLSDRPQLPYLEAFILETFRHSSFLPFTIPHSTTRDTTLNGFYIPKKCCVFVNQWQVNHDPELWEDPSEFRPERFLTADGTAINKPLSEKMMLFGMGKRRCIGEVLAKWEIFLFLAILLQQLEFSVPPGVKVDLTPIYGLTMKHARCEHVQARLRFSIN

| molecule-smiles | AC50 |
| --- | --- |
| CCCNC(=O)Nc1ccc2c(c1)nc(C)n2C | 15.8 µM (inconclusive) |
| COc1ccccc1-c1cncnc1N1CCN(C)CC1 | 12.6 µM (inconclusive) |
| CC/C(O)=C(\C#N)c1nnc2n1CCCCC2 | 14.1 µM (inconclusive) |
| COc1cc(OC)cc(C(=O)Nc2ccccc2C(=O)N2CCCC2)c1 | 14.1 µM (inconclusive) |
| O[C@H](CCCN1CCN(c2ncc(F)cn2)CC1)c1ccc(F)cc1 | 31.6 µM (inconclusive) |
| Cc1noc(C)c1-c1ccc2ncnc(NC3CCNCC3)c2c1 | 31.6 µM (inconclusive) |

----------
Measured AC50 (Cytochrome P450 3A4 (Homo sapiens))

| molecule | AC50 |
| --- | --- |
| C/C(=N/NC(=O)c1ccc(C)s1)c1cccc(NC(=O)COc2ccc(Cl)cc2C)c1 | 1.12 µM (inconclusive) |
| Cc1ccc(/N=N\c2ccc(N)cc2C)c(S(N)(=O)=O)c1 | 3.98 µM (inconclusive) |
| CC1CC(C)CN(CCCNC(=O)C2CCCN(c3nnc(N4CCCC4=O)s3)C2)C1 (centres undefined) | 28.2 µM (inconclusive) |
| CS(=O)(=O)N1CC(C(=O)NC2CC2)Oc2ccc(Cl)cc21 (centres undefined) | 25.1 µM (inconclusive) |
| CS(=O)(=O)c1cnc2c(-c3ccc(F)cc3)cnn2c1N | 28.2 µM (inconclusive) |
| CCOC(=O)CC(NC(=O)c1ccc(C)cc1)c1ccc(C)cc1 (centres undefined) | 25.1 µM (inconclusive) |
| Nc1nc2ccc(Cl)cc2c2nc(-c3ccco3)nn12 | 7.94 µM (inconclusive) |
| O=C1S/C(=C/c2ccc(N3CCOCC3)o2)C(=O)N1Cc1ccc(F)cc1 | 7.94 µM (inconclusive) |
| C=CCn1c(NCc2ccccc2)nc2ccccc21 | 25.1 µM (inconclusive) |
| Cn1ncc(C#N)c1NC(=O)C1CC(c2ccc(Cl)cc2)=NO1 (centres undefined) | 20 µM (inconclusive) |
| O=C1SC(c2ccccc2)=C/C1=C\N1CCCCC1 | 25.1 µM (inconclusive) |
| N#Cc1ccc(CN2CCCC3(CCN(C(=O)Oc4ccccc4)CC3)C2)cc1 | 15.8 µM (inconclusive) |
| COc1ccc(OC)c(Nc2nc(-c3sc(NC(=O)c4ccccc4)nc3C)cs2)c1 | 28.2 µM (inconclusive) |
| Cn1c(/C=C/c2ccc([N+](=O)[O-])o2)nc2ccccc2c1=O | 25.1 µM (inconclusive) |
| COc1cc(/C=C2\SC(=S)N(Nc3ccccc3)C2=O)cc(OC)c1OC | 15.8 µM (inconclusive) |
| CCN1CCc2c(sc(NC(=S)NC(=O)c3ccccc3)c2C#N)C1 | 20 µM (inconclusive) |
| COc1ccc(/C=C/C(=O)Nc2cc(C(F)(F)F)ccc2Cl)cc1 | 10 µM (inconclusive) |
| O=C(Nc1cccnc1Cl)C1c2ccccc2Oc2ccccc21 | 14.1 µM (inconclusive) |
| O=C(c1ccc2c(=O)n(CC3CCCO3)c(=S)[nH]c2c1)N1CCN(c2ccccc2)CC1 (centres undefined) | 7.08 µM (inconclusive) |

----------
# system-name: G-protein coupled receptor 55 (Homo sapiens)
# Sequence (Q9Y2T6 whole entry): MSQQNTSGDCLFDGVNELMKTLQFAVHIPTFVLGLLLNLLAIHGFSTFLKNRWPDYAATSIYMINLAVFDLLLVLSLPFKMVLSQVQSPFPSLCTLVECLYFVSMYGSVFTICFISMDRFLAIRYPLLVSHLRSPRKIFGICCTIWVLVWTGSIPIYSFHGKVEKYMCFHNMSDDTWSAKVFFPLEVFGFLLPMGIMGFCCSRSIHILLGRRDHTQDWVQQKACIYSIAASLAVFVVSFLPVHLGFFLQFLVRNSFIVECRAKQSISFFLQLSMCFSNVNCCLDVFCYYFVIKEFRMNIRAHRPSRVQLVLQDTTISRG
# protocol-description: selective activators of receptor GPR55 – imaging, U2OS cells, beta-arrestin-GFP redistribution, primary screen (AID 1961)
# Assay type: functional
Active and inactive are the calls of the source.
Possible outcomes: active, inactive

| molecule-smiles | category |
| --- | --- |
| Clc1ccccc1-c1nc2ccccc2[nH]1 | active |
| Cc1nc(SCc2ccc(F)cc2)c2oc3ccccc3c2n1 | inactive |
| CCN(CC)S(=O)(=O)c1ccc2c(c1)nc(CCC(=O)Nc1cccc(C(F)(F)F)c1)n2CC | active |
| O=C(Nc1cc(S(=O)(=O)N2CCOCC2)ccc1N1CCOCC1)c1cc2c(s1)CCC2 | active |

----------
# Test system: BJ
# protocol-description: BJ-TERT fibroblast viability loss – cell-based, RAS-independent, luminescence, dose response (AID 1933)
# Assay type: functional
# condition-notes: Homo sapiens
Activity calls are given as the source filed them.

| molecule-smiles | system-name | EC50 |
| --- | --- | --- |
| O=S(=O)(Nc1cccc2cccnc12)c1ccccc1 | BJ | 28.1 µM (active) |
| O=C(NCc1cccnc1)c1ccc(NC(=O)c2cccc([N+](=O)[O-])c2)cc1 | BJ | 27.4 µM (active) |
| Cc1ccc(N2C(=O)c3cccc4c([N+](=O)[O-])ccc(c34)C2=O)c2cccnc12 | BJ | 2.21 µM (inconclusive) |
| Cc1ccc(C(=O)c2cc([N+](=O)[O-])ccc2N2CCN(C)CC2)cc1 | BJ | 12.5 µM (active) |
| Cn1c(/C=C/c2ccc([N+](=O)[O-])o2)nc2ccccc2c1=O | BJ | 4.06 µM (active) |
| Cc1nnc(N/N=C/c2ccccn2)nc1O | BJ | 1.69 µM (active) |
